# target_of_assay: T1, human MSLN-hFc protein (Acro, Cat. No. MSN-H5253) (human, UniProt Q13421 296-580)
# T1 construct: the method names the coated protein as human MSLN-hFc (Acro); also called human MSLN full-length protein
# run_description: ELISA on coated antigen, antibody 100 nM
recorded_endpoint: OD450 (OD450)
One number for each entry, in OD450.

Before answering, review these 3 worked examples.
F7.44.20-H8 (scFv, not shown: small tags and cut ends, also called S009-F7.44.20 humanized antibody VH1a + VL4) scFv: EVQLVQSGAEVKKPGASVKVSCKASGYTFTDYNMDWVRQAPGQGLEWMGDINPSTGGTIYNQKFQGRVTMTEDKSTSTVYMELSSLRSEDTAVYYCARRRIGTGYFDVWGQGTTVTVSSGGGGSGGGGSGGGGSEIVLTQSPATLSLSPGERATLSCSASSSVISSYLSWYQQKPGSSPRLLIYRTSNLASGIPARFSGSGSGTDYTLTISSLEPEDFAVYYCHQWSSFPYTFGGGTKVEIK    3.09
F7.44.20-H2 (scFv, not shown: small tags and cut ends, also called S009-F7.44.20 humanized antibody VH1 + VL2) scFv: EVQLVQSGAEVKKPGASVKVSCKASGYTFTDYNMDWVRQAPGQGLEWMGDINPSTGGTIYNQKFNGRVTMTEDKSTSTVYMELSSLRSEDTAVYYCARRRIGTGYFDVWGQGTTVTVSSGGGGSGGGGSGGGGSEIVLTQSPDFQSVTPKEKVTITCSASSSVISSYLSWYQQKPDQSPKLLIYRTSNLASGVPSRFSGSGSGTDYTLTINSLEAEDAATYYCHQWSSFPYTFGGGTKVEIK    3.06
F7.44.20-H15 (scFv, not shown: small tags and cut ends, also called S009-F7.44.20 humanized antibody VH2a + VL3) scFv: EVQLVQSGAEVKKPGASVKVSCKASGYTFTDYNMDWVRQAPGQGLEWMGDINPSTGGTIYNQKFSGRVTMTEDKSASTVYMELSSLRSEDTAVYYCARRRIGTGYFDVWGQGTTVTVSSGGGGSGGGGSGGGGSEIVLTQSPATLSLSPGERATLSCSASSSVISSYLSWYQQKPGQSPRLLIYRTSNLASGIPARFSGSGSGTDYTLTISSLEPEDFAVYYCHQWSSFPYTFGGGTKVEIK    3.26

I'm hoping you can list OD450 for every binder here, please.
1. F7.44.20-VL-VH (scFv, not shown: small tags and cut ends, also called S009-F7.44.20 parental variable regions, VL-VH order) scFv: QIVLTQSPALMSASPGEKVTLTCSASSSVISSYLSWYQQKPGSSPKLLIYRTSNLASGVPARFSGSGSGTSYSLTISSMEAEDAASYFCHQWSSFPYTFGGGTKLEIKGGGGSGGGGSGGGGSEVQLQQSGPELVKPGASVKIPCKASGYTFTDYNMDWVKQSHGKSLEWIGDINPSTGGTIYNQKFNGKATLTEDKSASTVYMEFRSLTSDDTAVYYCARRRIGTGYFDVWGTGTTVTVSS
2. F7.44.20-H5 (scFv, not shown: small tags and cut ends, also called S009-F7.44.20 humanized antibody VH1a + VL1) scFv: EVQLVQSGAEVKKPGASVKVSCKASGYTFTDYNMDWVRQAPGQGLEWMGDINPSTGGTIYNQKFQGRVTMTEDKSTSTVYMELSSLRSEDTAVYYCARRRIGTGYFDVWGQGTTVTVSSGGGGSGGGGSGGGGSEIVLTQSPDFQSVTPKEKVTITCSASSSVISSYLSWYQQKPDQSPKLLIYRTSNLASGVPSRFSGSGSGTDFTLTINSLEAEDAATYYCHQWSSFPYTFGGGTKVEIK
3. F7.44.20-H4 (scFv, not shown: small tags and cut ends, also called S009-F7.44.20 humanized antibody VH1 + VL4) scFv: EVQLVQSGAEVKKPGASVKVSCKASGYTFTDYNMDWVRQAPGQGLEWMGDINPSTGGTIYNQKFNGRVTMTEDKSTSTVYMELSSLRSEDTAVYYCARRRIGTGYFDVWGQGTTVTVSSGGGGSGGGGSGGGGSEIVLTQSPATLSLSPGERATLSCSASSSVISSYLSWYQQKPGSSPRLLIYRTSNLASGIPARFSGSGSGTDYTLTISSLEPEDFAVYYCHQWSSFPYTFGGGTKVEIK
4. F7.44.20-H9 (scFv, not shown: small tags and cut ends, also called S009-F7.44.20 humanized antibody VH2 + VL1) scFv: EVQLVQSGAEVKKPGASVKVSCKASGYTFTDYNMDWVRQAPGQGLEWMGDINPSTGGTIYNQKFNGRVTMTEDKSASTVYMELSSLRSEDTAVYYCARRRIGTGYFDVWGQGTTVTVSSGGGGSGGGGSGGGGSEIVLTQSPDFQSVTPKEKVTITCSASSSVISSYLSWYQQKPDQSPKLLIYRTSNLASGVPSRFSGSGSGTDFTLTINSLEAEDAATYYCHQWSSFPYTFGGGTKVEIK
5. F7.44.20-H1 (scFv, not shown: small tags and cut ends, also called S009-F7.44.20 humanized antibody VH1 + VL1) scFv: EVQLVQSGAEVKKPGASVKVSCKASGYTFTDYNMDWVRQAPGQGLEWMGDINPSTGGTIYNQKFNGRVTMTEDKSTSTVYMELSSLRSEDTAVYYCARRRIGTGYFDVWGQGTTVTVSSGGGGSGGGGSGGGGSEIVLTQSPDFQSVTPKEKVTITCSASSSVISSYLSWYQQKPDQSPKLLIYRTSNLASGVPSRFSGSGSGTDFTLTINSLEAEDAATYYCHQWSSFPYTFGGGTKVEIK
6. F7.44.20-H7 (scFv, not shown: small tags and cut ends, also called S009-F7.44.20 humanized antibody VH1a + VL3) scFv: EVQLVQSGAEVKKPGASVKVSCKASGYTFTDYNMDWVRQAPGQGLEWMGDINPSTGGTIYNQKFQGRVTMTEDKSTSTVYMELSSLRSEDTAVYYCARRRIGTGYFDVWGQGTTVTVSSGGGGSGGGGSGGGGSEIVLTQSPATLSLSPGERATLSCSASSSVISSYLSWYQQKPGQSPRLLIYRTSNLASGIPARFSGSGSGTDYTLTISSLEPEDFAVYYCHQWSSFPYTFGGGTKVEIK

Found:
[2.98, 2.94, 3.2, 3.25, 3.04, 3.05]

Lookup: Field request: OD450 | item: F7.44.20-H6 (scFv, not shown: small tags and cut ends, also called S009-F7.44.20 humanized antibody VH1a + VL2) scFv: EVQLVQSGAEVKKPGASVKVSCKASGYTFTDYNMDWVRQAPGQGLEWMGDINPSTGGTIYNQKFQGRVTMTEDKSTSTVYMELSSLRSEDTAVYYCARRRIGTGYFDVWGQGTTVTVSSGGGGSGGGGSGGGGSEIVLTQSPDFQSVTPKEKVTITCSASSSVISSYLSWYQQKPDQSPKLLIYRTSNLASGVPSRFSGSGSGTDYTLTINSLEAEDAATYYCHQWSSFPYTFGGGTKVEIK
Found: 3.04
